- System: MRSA COL (MB5393)
- ASSAY INFO: TarO Inhibitor/β-Lactam Synergy Assay (growth, OD600)
- Type: cell-based, Staphylococcus aureus
- MEASUREMENT SETUP: in combination with 8 μg/mL dicloxacillin (DCX)
# cutoff 4 µM applies to MITC95 TarO inhibitor + 8 μg/mL DCX; Bacteria: SA_MB5393; >= gives Criterion met, < gives Criterion not met

[
  {
    "SMILES NOTATION": "C[C@H]1[C@@H](c2cc(F)cc(C(F)(F)F)c2)OC(=O)N1C(=O)NCc1cccc2ccccc12",
    "QUALITATIVE LABEL": "Criterion not met"
  },
  {
    "SMILES NOTATION": "C[C@H]1[C@@H](c2cc(F)cc(C(F)(F)F)c2)OC(=O)N1C(=O)NCc1nccc2sccc12",
    "QUALITATIVE LABEL": "Criterion met"
  },
  {
    "SMILES NOTATION": "C[C@H]1[C@@H](c2cc(C(F)(F)F)cc(C(F)(F)F)c2)OC(=O)N1C(=O)NCc1cccc2c1OCCO2",
    "QUALITATIVE LABEL": "Criterion not met"
  },
  {
    "SMILES NOTATION": "COc1cc([C@H]2OC(=O)N(C(=O)NCc3cncc4ccccc34)[C@H]2CO)cc(C(F)(F)F)c1",
    "QUALITATIVE LABEL": "Criterion not met"
  },
  {
    "SMILES NOTATION": "O=C(NCc1cncc2ccccc12)N1C(=O)O[C@H](c2cc(F)cc(C(F)(F)F)c2)[C@@H]1CO",
    "QUALITATIVE LABEL": "Criterion not met"
  },
  {
    "SMILES NOTATION": "C[C@H]1[C@@H](c2cc(C(F)(F)F)cc(C(F)(F)F)c2)OC(=O)N1C(=O)NCc1cncc2ccccc12",
    "QUALITATIVE LABEL": "Criterion not met"
  },
  {
    "SMILES NOTATION": "C[C@H]1[C@@H](c2cccc(C(C)(F)F)c2)OC(=O)N1C(=O)NCc1cncc2ccccc12",
    "QUALITATIVE LABEL": "Criterion not met"
  },
  {
    "SMILES NOTATION": "C[C@H]1[C@@H](c2cc(F)cc(C(F)(F)F)c2)OC(=O)N1C(=O)NCc1ccccc1[N+](=O)[O-]",
    "QUALITATIVE LABEL": "Criterion not met"
  },
  {
    "SMILES NOTATION": "C[C@H]1[C@@H](c2cc(F)cc(C(F)(F)F)c2)OC(=O)N1C(=O)NCc1ccccc1-n1cccc1",
    "QUALITATIVE LABEL": "Criterion met"
  },
  {
    "SMILES NOTATION": "C[C@H]1[C@@H](c2cc(N(C)C)cc(C(F)(F)F)c2)OC(=O)N1C(=O)NCc1cncc2ccccc12",
    "QUALITATIVE LABEL": "Criterion not met"
  },
  {
    "SMILES NOTATION": "Cc1cc(C)cc([C@H]2OC(=O)N(C(=O)CCc3cncc4ccccc34)[C@H]2C)c1",
    "QUALITATIVE LABEL": "Criterion met"
  },
  {
    "SMILES NOTATION": "COc1cc(C(F)(F)F)cc([C@H]2OC(=O)N(C(=O)NCc3cncc4cccnc34)[C@H]2C)n1",
    "QUALITATIVE LABEL": "Criterion not met"
  },
  {
    "SMILES NOTATION": "Cc1cc([C@H]2OC(=O)N(C(=O)CCc3cccc4cnccc34)[C@H]2C)cc(C(F)(F)F)c1",
    "QUALITATIVE LABEL": "Criterion met"
  },
  {
    "SMILES NOTATION": "C[C@H]1[C@@H](c2cc(C(F)(F)F)cc(C(F)(F)F)c2)OC(=O)N1C(=O)NCc1cnc2c(c1)CCC2",
    "QUALITATIVE LABEL": "Criterion met"
  },
  {
    "SMILES NOTATION": "C[C@H]1[C@@H](c2cc(C(F)(F)F)cc(C(F)(F)F)c2)OC(=O)N1C(=O)CCc1cccc2ncccc12",
    "QUALITATIVE LABEL": "Criterion met"
  }
]
